Source listed as patent US8822517B2.

I'd be grateful if you could share measured inhibition at 1 µM for these entries.
Molecular target: UniProtKB P34969
Sequence (P34969 whole entry): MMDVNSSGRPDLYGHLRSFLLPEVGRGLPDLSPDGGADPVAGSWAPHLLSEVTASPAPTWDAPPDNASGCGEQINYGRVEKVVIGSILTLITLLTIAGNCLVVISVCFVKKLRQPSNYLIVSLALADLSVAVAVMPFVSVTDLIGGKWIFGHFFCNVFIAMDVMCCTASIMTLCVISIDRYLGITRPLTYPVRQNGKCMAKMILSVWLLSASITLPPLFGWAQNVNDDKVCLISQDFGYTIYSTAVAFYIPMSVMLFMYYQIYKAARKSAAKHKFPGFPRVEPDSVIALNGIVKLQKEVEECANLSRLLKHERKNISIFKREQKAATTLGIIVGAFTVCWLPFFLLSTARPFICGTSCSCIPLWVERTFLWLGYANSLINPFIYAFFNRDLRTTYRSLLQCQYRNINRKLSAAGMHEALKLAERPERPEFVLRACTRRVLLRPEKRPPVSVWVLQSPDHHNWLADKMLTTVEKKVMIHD
Assay: Binding assay 5-HT7 (h), [3H]LSD, CHO cells
Parameters: expressed in transfected cells; host or cells: CHO cells
Conditions: read-out: 5-HT7
One number for each entry, in %.

compound-structure: O=S(=O)(NCCCCN1CCC(c2noc3cc(F)ccc23)CC1)c1cccs1
inhibition at 1 µM (%): 98
--
compound-structure: Cc1c(S(=O)(=O)NCCCCN2CCN(c3cccc4[nH]ccc34)CC2)sc2ccc(F)cc12
inhibition at 1 µM (%): 91
--
compound-structure: O=S(=O)(NCCCN1CCN(c2cccc3c2OCCO3)CC1)c1ccc2c(c1)CCO2
inhibition at 1 µM (%): 62
--
compound-structure: O=S(=O)(NCCCCN1CCN(c2nsc3ccccc23)CC1)c1cccc2scnc12
inhibition at 1 µM (%): 99
--
compound-structure: O=S(=O)(NCCCCN1CCC(c2noc3cc(F)ccc23)CC1)c1cnc2ccccn12
inhibition at 1 µM (%): 95
--
compound-structure: O=S(=O)(NCCCN1CCC(c2noc3cc(F)ccc23)CC1)c1ccc(F)cc1
inhibition at 1 µM (%): 94
--
compound-structure: N#Cc1cccc(S(=O)(=O)NCCCN2CCC(c3noc4cc(F)ccc34)CC2)c1
inhibition at 1 µM (%): 98

Then this compound:
Looking up `O=S(=O)(NCCCN1CCC(c2noc3cc(F)ccc23)CC1)c1cc2cccnc2[nH]1` , I see its inhibition at 1 µM listed as 99
